Exercise: state measured Hydrolysis k/h^−1 for each of the compounds provided.
assay: Hydrolysis (aquation) kinetics followed by 1H NMR; format: physicochemical; settings: 298 K; 5% MeOD-d4/95% D2O, pH* 2
Give bare numbers, in h⁻¹.

Below, each entry is followed by its recorded Hydrolysis k/h^−1 result.
- COMPOUND: "O=C([O][Os][Cl])c1cc(Cl)ccn1.c1ccc(-c2ccccc2)cc1 [Compound 4, [(η^6-bip)Os(4-Cl-pico)Cl]]"
  Hydrolysis k/h^−1 [h⁻¹]: 0.656
- COMPOUND: "O=C([O][Os][Cl])c1cccc(Br)n1.c1ccc(-c2ccccc2)cc1 [Compound 1, [(η^6-bip)Os(6-Br-pico)Cl]]"
  Hydrolysis k/h^−1 [h⁻¹]: 0.345
- COMPOUND: "O=C(O)c1ccnc(C(=O)[O][Os][Cl])c1.c1ccc(-c2ccccc2)cc1 [Compound 5, [(η^6-bip)Os(4-CO2H-pico)Cl]]"
  Hydrolysis k/h^−1 [h⁻¹]: 0.384

Then this compound:
Please supply the value of reported Hydrolysis k/h^−1 for the item Cc1cccc(C(=O)[O][Os][Cl])n1.c1ccc(-c2ccccc2)cc1 [Compound 3, [(η^6-bip)Os(6-Me-pico)Cl]]
0.676

* * *

Test system: human lung A549 cancer cells
Experiment: Cytotoxicity towards A549 cells, sulforhodamine B (SRB) assay
Type: cell-based
Settings: Table 7; 24 h exposure, 72 h growth, 2-50 μM; read-out: IC50/μM A549
Experimental: Experimental: Cytotoxicity Towards A2780 and A549 Human Cancer Cells. After plating, human ovarian A2780 cancer cells were treated with Os^II complexes on day 3, and human lung A549 cancer cells on day 2, at concentrations ranging from 2 μM to 50 μM. […] Cells were exposed to the complexes for 24 h, washed, supplied with fresh medium, allowed to grow for three doubling times (72 h), and then the protein content measured (proportional to cell survival) using the sulforhodamine B (SRB) assay. […]
Would you kindly list IC50 for each of these molecules?
Give bare numbers, in µM.

Known results for molecules:
- MOLECULE: "F[P-](F)(F)(F)(F)F.NCCN.[Cl][Os+].c1ccc(-c2ccccc2)cc1 [AFAP05, [(η^6-bip)Os(en)Cl]PF6]"
  IC50 / µM: 10
- MOLECULE: "C1=CCC2=C(C1)Cc1ccccc1C2.F[P-](F)(F)(F)(F)F.NCCN.[Cl][Ru+] [HC11, reference compound]"
  IC50 / µM: 0.5
- MOLECULE: "F[B-](F)(F)F.[Cl][Os-]1[NH2+]CC[NH2+]1.c1ccc(-c2ccccc2)cc1 [AFAP51, [(η^6-bip)Os(en)Cl]BF4]"
  IC50 / µM: 10

Here is the next item to consider.
For C1=CCC2=C(C1)Cc1ccccc1C2.F[B-](F)(F)F.NCCN.[Cl][Os+] [AFAP65, [(η^6-THA)Os(en)Cl]BF4] , write its IC50.
6.4

* * *

Could you please report measured IC50 for the items listed next?
System: human ovarian A2780 cancer cells
Assay: Cytotoxicity towards A2780 cells, sulforhodamine B (SRB) assay
Assay type: cell-based
Settings: Table 7; 24 h exposure, 72 h growth, 2-50 μM; read-out: IC50/μM A2780
Experimental: Experimental: Cytotoxicity Towards A2780 and A549 Human Cancer Cells. After plating, human ovarian A2780 cancer cells were treated with Os^II complexes on day 3, and human lung A549 cancer cells on day 2, at concentrations ranging from 2 μM to 50 μM. […] Cells were exposed to the complexes for 24 h, washed, supplied with fresh medium, allowed to grow for three doubling times (72 h), and then the protein content measured (proportional to cell survival) using the sulforhodamine B (SRB) assay. […]
Numbers only, in µM.

- COMPOUND: "C1=CCC2=C(C1)Cc1ccccc1C2.F[B-](F)(F)F.NCCN.[Cl][Os+] [AFAP65, [(η^6-THA)Os(en)Cl]BF4]"
  VALUE_UNITS: "µM"
  IC50: 9.4

For every item in the list below, what is its measured IC50?
1. F[P-](F)(F)(F)(F)F.NCCN.[Cl][Os+].c1ccc(-c2ccccc2)cc1 [AFAP05, [(η^6-bip)Os(en)Cl]PF6]
2. F[B-](F)(F)F.[Cl][Os-]1[NH2+]CC[NH2+]1.c1ccc(-c2ccccc2)cc1 [AFAP51, [(η^6-bip)Os(en)Cl]BF4]

[7, 7.6]

Dear colleague, could you send me IC50 for each of the items below? Thanks.
1. C1=CCC2=C(C1)Cc1ccccc1C2.F[P-](F)(F)(F)(F)F.NCCN.[Cl][Ru+] [HC11, reference compound]
2. CC(=O)C=C(C)[O][Ru][Cl].Cc1ccc(C(C)C)cc1 [MMS6, reference compound]

0.5
19

* * *

tested on: 9-ethyl guanine (9EtG); test: Reaction with nucleobase model 9-ethyl guanine, 1H NMR; format: binding; settings: t = 72 h; 1 mM complex, 1 mol equivalent 9EtG, D2O
ENDPOINT_NAME: % 9EtG nucleobase adduct (%)
Answers are plain numbers, in %.

Guide cases for % 9EtG nucleobase adduct, answers given:
- MOLECULE: "O=C(O)c1ccnc(C(=O)[O][Os][Cl])c1.c1ccc(-c2ccccc2)cc1 [Compound 5, [(η^6-bip)Os(4-CO2H-pico)Cl]]"
  % 9EtG nucleobase adduct / %: 100
- MOLECULE: "Cc1cccc(C(=O)[O][Os][Cl])n1.c1ccc(-c2ccccc2)cc1 [Compound 3, [(η^6-bip)Os(6-Me-pico)Cl]]"
  % 9EtG nucleobase adduct / %: 30
- MOLECULE: "O=C([O][Os][Cl])c1cc(Cl)ccn1.c1ccc(-c2ccccc2)cc1 [Compound 4, [(η^6-bip)Os(4-Cl-pico)Cl]]"
  % 9EtG nucleobase adduct / %: 76

Turning now to a further molecule:
Supply % 9EtG nucleobase adduct value. Item: Cc1ccnc(C(=O)[O][Os][Cl])c1.c1ccc(-c2ccccc2)cc1 [Compound 6, [(η^6-bip)Os(4-Me-pico)Cl]]
85

* * *

Task for the reader: assign each of the following compounds its reported pKa of water coordinated on hydrolysis (aqua adduct of complex).
experiment: Acidity (pKa / pKa*) of coordinated water, 1H NMR pH* titration; settings: aqua adduct

I need pKa of water coordinated on hydrolysis (aqua adduct of complex) for every entry listed below, if you could help.
1. CC(N)C(=O)[O][Os][Cl].Cc1ccc(C(C)C)cc1
2. Cc1ccc(C(C)C)cc1.NCC(=O)[O][Os][Cl]
3. CC(C)(N)C(=O)[O][Os][Cl].Cc1ccc(C(C)C)cc1

7.05
7.17
7.08
